For each record, write down the corresponding hERG current change (%, negative = inhibition) at 10uM.
# SYSTEM NAME: human ether-à-go-go-related gene (hERG) potassium channel (human, UniProt Q12809)
# Sequence (Q12809 whole entry, looked up): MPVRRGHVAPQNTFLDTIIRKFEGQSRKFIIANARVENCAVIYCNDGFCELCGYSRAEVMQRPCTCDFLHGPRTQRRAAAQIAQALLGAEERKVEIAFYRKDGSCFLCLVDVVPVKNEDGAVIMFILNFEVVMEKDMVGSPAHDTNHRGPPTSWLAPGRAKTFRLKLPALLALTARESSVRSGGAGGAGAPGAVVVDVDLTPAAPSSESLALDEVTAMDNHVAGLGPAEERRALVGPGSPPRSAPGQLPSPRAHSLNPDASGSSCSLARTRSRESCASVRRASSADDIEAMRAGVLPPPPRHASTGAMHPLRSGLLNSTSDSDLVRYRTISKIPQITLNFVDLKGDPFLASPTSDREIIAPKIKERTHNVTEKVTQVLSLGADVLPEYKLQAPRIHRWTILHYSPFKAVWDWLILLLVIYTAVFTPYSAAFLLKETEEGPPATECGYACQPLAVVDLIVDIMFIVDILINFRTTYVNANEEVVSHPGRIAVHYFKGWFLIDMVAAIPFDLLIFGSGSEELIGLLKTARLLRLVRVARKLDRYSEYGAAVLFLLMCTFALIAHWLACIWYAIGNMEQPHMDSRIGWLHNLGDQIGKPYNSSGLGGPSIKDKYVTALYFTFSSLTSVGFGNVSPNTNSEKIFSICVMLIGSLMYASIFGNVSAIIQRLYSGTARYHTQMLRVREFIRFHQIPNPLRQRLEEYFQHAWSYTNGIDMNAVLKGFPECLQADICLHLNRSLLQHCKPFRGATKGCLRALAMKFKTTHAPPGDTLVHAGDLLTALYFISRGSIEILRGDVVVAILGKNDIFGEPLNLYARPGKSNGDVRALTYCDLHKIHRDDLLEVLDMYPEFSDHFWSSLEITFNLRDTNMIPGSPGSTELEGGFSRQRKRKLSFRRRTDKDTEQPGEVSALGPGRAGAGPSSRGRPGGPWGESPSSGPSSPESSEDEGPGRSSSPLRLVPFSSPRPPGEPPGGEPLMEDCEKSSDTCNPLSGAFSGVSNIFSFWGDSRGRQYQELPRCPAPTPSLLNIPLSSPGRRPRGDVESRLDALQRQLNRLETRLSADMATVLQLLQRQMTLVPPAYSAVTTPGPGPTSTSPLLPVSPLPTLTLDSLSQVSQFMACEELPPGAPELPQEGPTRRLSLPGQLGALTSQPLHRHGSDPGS
# ASSAY OVERVIEW: primary screen, population patch clamp on CHO cells stably expressing hERG; higher = less effect of the substance
Screen size: about 310,000 compounds; about 14,000 (4.5%) showed an effect of 50% or more. Effects have a minus sign here. The entries come from a sample that favours strong results as a whole.
Kindly answer with a numeric value in %, unit omitted.

Asked: // lookup hERG current change (%, negative = inhibition) at 10uM for COc1ccccc1OCCCCCCN1CCN(C)CC1.O=C(O)C(=O)O
Given back: -5.83

Asked: Now give it for COc1ccccc1OCCCCCCN1CCOCC1.O=C(O)C(=O)O too.
Given back: 0.0271

Asked: Now give it for COc1cccc(OC)c1OCCOCCN1CCN(C)CC1 too.
Given back: 20.8

Asked: Now give it for COc1ccccc1CN1CCN(Cc2ccc(Cl)cc2)CC1.O=C(O)C(=O)O too.
Given back: -62.5

Asked: Now give it for COc1ccccc1OCCCCN1CCN(C(c2ccccc2)c2ccccc2)CC1.O=C(O)C(=O)O too.
Given back: -73

Asked: Now give it for COc1cccc(OC)c1OCCN1CCN(C(c2ccccc2)c2ccccc2)CC1 too.
Given back: -72.7

Asked: Now give it for CC1(C)Cc2cccc(OCC(=O)N3CCN(c4cccc(Cl)c4)CC3)c2O1 too.
Given back: -4.1

Asked: Now give it for CCOC(=O)C1(Cc2cccc(OC)c2)CCN(Cc2ccccc2)CC1 too.
Given back: -40.3

Asked: Now give it for CC1(C)Cc2cccc(OCC(=O)N3CCN(c4ccc([N+](=O)[O-])cc4)CC3)c2O1 too.
Given back: -70.3

Asked: Now give it for COc1ccccc1CN1CCCCCC1.O=C(O)C(=O)O too.
Given back: 11.5

----------
For each record, write down the corresponding hERG current change (%, negative = inhibition) at 10uM.
# SYSTEM NAME: human ether-à-go-go-related gene (hERG) potassium channel (human, UniProt Q12809);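 note: peak tail current of the secondary pulse compared with the same well before compound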
# ASSAY OVERVIEW: primary screen, population patch clamp on CHO cells stably expressing hERG; higher = less effect of the substance
Screen size: about 310,000 compounds; about 14,000 (4.5%) showed an effect of 50% or more. Effects have a minus sign here. The full list was thinned out, with strong results kept by preference.
Kindly answer with a numeric value in %, unit omitted.

Asked: // lookup hERG current change (%, negative = inhibition) at 10uM for CCC(=O)Nc1ccc2c(c1)nc(CCN1CCC(C)CC1)n2C
Given back: 1.48

Asked: Now give it for COc1ccc(-n2c(-c3ccccc3)nnc2-c2ccc(Cl)cc2)cc1 too.
Given back: 4.96

Asked: Now give it for Brc1ccc(-c2cn3c(n2)CCc2ccc4cccnc4c2-3)cc1 too.
Given back: 12.5

Asked: Now give it for COc1ccc(-n2c(-c3ccc(Cl)cc3)c[n+]3c2CCCCC3)cc1.[Br-] too.
Given back: -29.8

Asked: Now give it for CC1CCN(CCc2nc3cc(NC(=O)Nc4ccccc4)ccc3n2C)CC1 too.
Given back: -44.4

----------
# SYSTEM NAME: human ether-à-go-go-related gene (hERG) potassium channel (human, UniProt Q12809);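 note: peak tail current of the secondary pulse compared with the same well before compound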
# ASSAY OVERVIEW: primary screen, population patch clamp on CHO cells stably expressing hERG; higher = less effect of the substance
About 14,000 (4.5%) of roughly 310,000 compounds showed an effect of 50% or more. The effect is printed as a negative number. The sample as a whole holds a higher share of strong results than the screen did.
For each record, write down the corresponding hERG current change (%, negative = inhibition) at 10uM.
Kindly answer with a numeric value in %, unit omitted.

Asked: // lookup hERG current change (%, negative = inhibition) at 10uM for O=C(Nc1ccc2nc(C3CC3)n(Cc3ccccc3)c(=O)c2c1)C1CC1
Given back: -6.15

Asked: Now give it for CCN(CC(=O)Nc1ccccc1C(F)(F)F)C(=O)CCc1nc2ccccc2c(=O)[nH]1 too.
Given back: 12.5

Asked: Now give it for CCN(CC(=O)Nc1c(F)cccc1F)C(=O)CCc1nc2ccccc2c(=O)[nH]1 too.
Given back: 8.25

Asked: Now give it for CN(C(=O)c1ccccc1OCc1ccc(Cl)cc1)c1ccccc1 too.
Given back: -7.03

Asked: Now give it for Cc1cc2nc3n(c2cc1C)CC1CC(C(=O)NCC2CC2)N(C)C31 (stereo not shown) too.
Given back: -1.83

Asked: Now give it for CCN(CC(=O)NCCc1ccc(S(N)(=O)=O)cc1)Cc1nc2cc(OC)c(OC)cc2c(=O)[nH]1 too.
Given back: 0.804

Asked: Now give it for O=C(CSc1nc2ncc(Br)cc2[nH]1)c1cccc([N+](=O)[O-])c1 too.
Given back: -45.7

Asked: Now give it for CN1C(C(=O)NCc2cccc(C(F)(F)F)c2)CC2Cn3c(nc4cc5ccccc5cc43)C21 (stereo not shown) too.
Given back: -63.1

Asked: Now give it for CCN(CC(=O)NCCc1ccc(Cl)cc1)Cc1nc2ccccc2c(=O)[nH]1 too.
Given back: -53.3

Asked: Now give it for CN1C(C(=O)NCc2cccc(C(F)(F)F)c2)CC2Cn3c(nc4cc(Cl)c(Cl)cc43)C21 (stereo not shown) too.
Given back: -73.6

Asked: Now give it for C=CCNC(=O)C1CC2Cn3c(nc4cc(C)c(C)cc43)C2N1C (stereo not shown) too.
Given back: -7.6

Asked: Now give it for O=C(O)CCC(=O)Nc1ccccc1C(=O)Nc1ccccc1 too.
Given back: 15.6

Asked: Now give it for Cc1cc2nc3n(c2cc1C)CC1CC(C(=O)NCc2cccc(C(F)(F)F)c2)N(C)C31 (stereo not shown) too.
Given back: -66.7

Asked: Now give it for O=C(CSc1nc2ncc(Br)cc2[nH]1)c1ccc([N+](=O)[O-])cc1 too.
Given back: -66.9

Asked: Now give it for CN1C(C(=O)NCc2cccc(C(F)(F)F)c2)CC2Cn3c(nc4ccccc43)C21 (stereo not shown) too.
Given back: -47.4

Asked: Now give it for Cc1noc(C)c1S(=O)(=O)N1CCCC(C(=O)Nc2nccs2)C1 (stereo not shown) too.
Given back: -13.6

Asked: Now give it for CCN(CC)CCCCCC(=O)Nc1ccccc1C(=O)Nc1ccccc1 too.
Given back: -55.8

Asked: Now give it for CN(Cc1nc2ccccc2c(=O)[nH]1)C(=O)COc1ccccc1Cc1ccccc1 too.
Given back: -43.3

Asked: Now give it for CCN(CC(=O)NC(c1ccccc1)c1ccccc1)Cc1nc2ccccc2c(=O)[nH]1 too.
Given back: -32.4

----------
# SYSTEM NAME: human ether-à-go-go-related gene (hERG) potassium channel (human, UniProt Q12809);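 note: peak tail current of the secondary pulse compared with the same well before compound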
# ASSAY OVERVIEW: primary screen, population patch clamp on CHO cells stably expressing hERG; higher = less effect of the substance
Among all 310,000 compounds or so, about 14,000 (4.5%) showed an effect of 50% or more. Effects have a minus sign here. This excerpt belongs to a sample that is enriched for strong results.
MEASUREMENT NAME: hERG current change (%, negative = inhibition) at 10uM (%)
Kindly answer with a numeric value in %, unit omitted.

Asked: // lookup hERG current change (%, negative = inhibition) at 10uM for COc1ccc(/C=C/C(=O)NCCNC(=O)c2ccccc2)cc1OC
Given back: -8.61

Asked: Now give it for COCCNC(=O)c1cc(-c2ccccc2)n(Cc2cc(C)no2)n1 too.
Given back: 0.26

Asked: Now give it for CCOC(=O)c1c(C)nc(-c2ccccc2)nc1NC(=O)CC too.
Given back: 1.29

Asked: Now give it for CCOc1cccc2sc(N(CCCN(C)C)C(=O)c3ccc(S(=O)(=O)N4CCCCCC4)cc3)nc12.Cl too.
Given back: 7.67

Asked: Now give it for O=C(COC(=O)CNC(=O)c1ccccc1F)Nc1ccc2[nH]c(=O)[nH]c2c1 too.
Given back: 10.2

Asked: Now give it for O=C(OCc1nnc(-c2ccccc2)o1)c1cc2ccccc2cc1O too.
Given back: 8.95

Asked: Now give it for CCc1ccccc1NC(=O)COC(=O)c1c(C)nsc1NC too.
Given back: -2.87

Asked: Now give it for O=S(=O)(Nc1ccc(-c2ccc3nncn3n2)cc1)c1cccs1 too.
Given back: 15.4

Asked: Now give it for CN1C(=O)/C(=C\c2ccncc2)SC1=Nc1ccccc1 too.
Given back: -11.2

Asked: Now give it for CS(=O)(=O)N1CCC(C(=O)NCc2ccco2)CC1 too.
Given back: 6.1

----------
For each record, write down the corresponding hERG current change (%, negative = inhibition) at 10uM.
# SYSTEM NAME: human ether-à-go-go-related gene (hERG) potassium channel (human, UniProt Q12809);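 note: peak tail current of the secondary pulse compared with the same well before compound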
# ASSAY OVERVIEW: primary screen, population patch clamp on CHO cells stably expressing hERG; higher = less effect of the substance
# Protocol: Briefly, Chinese hamster ovary (CHO) cells stably expressing the hERG channel were dislodged from tissue culture flasks and dispensed into PPC plates. […] During the recording, background leak currents were estimated by a 100 ms step to -80 mV from an initial holding potential of -70 mV and subtracted from the subsequent current measurement. The campaign was conducted in two phases using slight differences in recording protocol. […]
In all, about 310,000 compounds went through this assay and about 14,000 (4.5%) showed an effect of 50% or more. Effects have a minus sign here. This excerpt belongs to a sample that is enriched for strong results.
Kindly answer with a numeric value in %, unit omitted.

Asked: // lookup hERG current change (%, negative = inhibition) at 10uM for O=C(Nc1ccccc1)NN(C(=O)CCl)c1ccccc1
Given back: 6.85

Asked: Now give it for Cc1ccc(C(C)C)c(OCC(=O)Nc2ccc3c(c2)nc(CCN2CCCCC2)n3C)c1 too.
Given back: -75.8

Asked: Now give it for COc1cc(NC(=O)c2ccc3snnc3c2)cc(OC)c1 too.
Given back: 13.5

Asked: Now give it for C=CCN(CC=C)C(=S)NC(=O)/C=C/c1ccc(C)cc1 too.
Given back: 8.14

Asked: Now give it for Cc1ccc(C(C)C)c(OCC(=O)Nc2ccc3c(c2)nc(CN2CCCC2)n3C)c1 too.
Given back: -76.2

Asked: Now give it for CCOC(=O)Nc1sc2c(c1C(N)=O)CCC(C)C2 (stereo not shown) too.
Given back: 16.4

Asked: Now give it for COCCCn1c(Cc2csc(Nc3ccc(F)cc3)n2)nnc1SCC(N)=O too.
Given back: -5.91

Asked: Now give it for CCCC(=O)Nc1ccc2c(c1)nc(CN1CCCC1)n2C too.
Given back: 11.7

Asked: Now give it for CSc1ncccc1C(=O)OCC(=O)Nc1cc(C(F)(F)F)ccc1N1CCOCC1 too.
Given back: -20.2

Asked: Now give it for CC(C)CC(=O)Nc1ccc2c(c1)nc(CCN1CCCCC1)n2C too.
Given back: -9.9

Measured values drawn from paper PMC4336329 for this set.
